Molecular target: CCAAT/enhancer-binding protein beta (Homo sapiens)
Experiment: ATG_C_EBP_CIS: Attagene CIS-FACTORIAL HepG2 Assay for human CCAAT/Enhancer Binding Protein (C/EBP) beta (AID 2282927)
Conditions: HepG2 Attagene cis-factorial transcription factor reporter; actives raise or lower the signal
Calls of active or inactive are those of the source. The calls were made as follows: active = hit-call score of the fitted dose curve at least 0.9, where 1 is the maximum; inactive = score below 0.9.
Readout label: AC50

CCCCOCN(C(=O)CCl)c1c(CC)cccc1CC : 0.647 µM (active)
CCOC(=O)C(C)OC(=O)c1cc(Oc2ccc(C(F)(F)F)cc2Cl)ccc1[N+](=O)[O-] (stereo unspecified) : inactive
Cc1cnc(C2=NC(C)(C(C)C)C(=O)N2)c(C(=O)O)c1 (stereo unspecified) : inactive
CCN(CC)C(=O)C(C)Oc1cccc2ccccc12 (stereo unspecified) : 1.2 µM (active)
OC(c1ccc(Cl)cc1)(c1ccc(Cl)cc1)C(Cl)(Cl)Cl : inactive
COCC(=O)N(c1c(C)cccc1C)C(C)C(=O)OC (stereo unspecified) : inactive
N#CN=C1SCCN1Cc1ccc(Cl)nc1 : inactive
COCC(C)N(C(=O)CCl)c1c(C)csc1C (stereo unspecified) : inactive
O=c1n(Cl)c(=O)n(Cl)c(=O)n1Cl : inactive
Cc1nc(N(C)C)nc(OC(=O)N(C)C)c1C : inactive

Lookup: What AC50 value was documented for this compound, CSC(=O)c1c(C(F)F)nc(C(F)(F)F)c(C(=O)SC)c1CC(C)C ?
Found: inactive

Lookup: Same thing, different compound: Cc1c(COC(=O)[C@@H]2[C@H](/C=C(\Cl)C(F)(F)F)C2(C)C)cccc1-c1ccccc1
Found: inactive

Lookup: Same thing, different compound: C=CCOC(=O)C(C)(C)OC(=O)c1cc(-n2c(=O)cc(C(F)(F)F)n(C)c2=O)ccc1Cl
Found: inactive

Lookup: Same thing, different compound: CCNP(=S)(OC)O/C(C)=C/C(=O)OC(C)C (stereo unspecified)
Found: inactive

Lookup: Same thing, different compound: CC(C)Oc1cccc(NC(=O)c2ccccc2C(F)(F)F)c1
Found: 5.21 µM (active)

Lookup: Same thing, different compound: CC1(C)CCC(=Cc2ccc(Cl)cc2)C1(O)Cn1cncn1 (stereo unspecified)
Found: inactive

Lookup: Same thing, different compound: COP(=S)(OC)Oc1ccc([N+](=O)[O-])c(C)c1
Found: inactive

Lookup: Same thing, different compound: CCCCC(C#N)(Cn1cncn1)c1ccc(Cl)cc1 (stereo unspecified)
Found: inactive

Lookup: Same thing, different compound: CS(=O)(=O)c1ccc(C(=O)C2C(=O)CCCC2=O)c([N+](=O)[O-])c1
Found: inactive

Lookup: Same thing, different compound: CC(C)Nc1nc(Cl)nc(NC(C)C)n1
Found: inactive

Lookup: Same thing, different compound: COc1ccc(-c2ccccc2)cc1NNC(=O)OC(C)C
Found: inactive

Lookup: Same thing, different compound: COP(=O)(OC)O/C(C)=C/C(=O)N(C)C
Found: inactive

Lookup: Same thing, different compound: N#Cc1c(Cl)cccc1Cl
Found: inactive

Lookup: Same thing, different compound: CS(=O)(=O)c1cc(C(F)(F)F)ccc1C(=O)c1cnoc1C1CC1
Found: inactive

Lookup: Same thing, different compound: COP(=S)(OC)SCn1nnc2ccccc2c1=O
Found: 6.88 µM (active)

Lookup: Same thing, different compound: COc1cc(Cl)c(OC)cc1Cl
Found: inactive

Lookup: Same thing, different compound: COc1cc(OC)nc(NC(=O)NS(=O)(=O)c2ncccc2OCC(F)(F)F)n1
Found: inactive

Lookup: Same thing, different compound: O=C(O)c1c(Cl)ccc2cc(Cl)cnc12
Found: inactive

Lookup: Same thing, different compound: O=P(O)(O)CCCl
Found: inactive

Lookup: Same thing, different compound: O=C(Nc1ccccc1-c1ccc(Cl)cc1)c1cccnc1Cl
Found: 10.3 µM (active)

Lookup: Same thing, different compound: Clc1nc(Cl)nc(Nc2ccccc2Cl)n1
Found: 75.5 µM (active)
